- Test system: S. aureus
- Assay name: MIC, broth microdilution (CLSI)
- Format: cell-based, Staphylococcus aureus
- Measurement conditions: Staphylococcus aureus, strain LAC; read-out: minimum inhibitory concentration
# MIC per entry

Compound	Prefix operator	MIC (µg/mL)
O=C(COC(=O)Cc1coc2ccc3ccccc3c12)Nc1nnc(-c2ccccc2)s1	>	64
COc1ccc2c(ccc3occ(CC(=O)OCC(=O)Nc4nnc(-c5cccc(Cl)c5)o4)c32)c1	=	4
O=C(COC(=O)Cc1coc2ccc3ccccc3c12)Nc1nnc(-c2ccc(F)cc2)o1	=	8
O=C(COC(=O)Cc1coc2ccc3ccccc3c12)Nc1nnc(-c2cccc(Cl)c2)o1	=	64
O=C(COC(=O)Cc1coc2ccc3ccccc3c12)Nc1nnc(-c2ccccc2)o1 [Compound 1771, reference compound]	=	8
O=C(COC(=O)Cc1coc2ccc3ccccc3c12)Nc1nnc(-c2ccc(S(F)(F)(F)(F)F)cc2)o1	=	0.5

----------
- Tested on: S. aureus
- Assay name: MIC, broth microdilution (CLSI)
- Type: cell-based, Staphylococcus aureus
- Measurement conditions: Staphylococcus aureus, NEWMAN, strain Newman; read-out: minimum inhibitory concentration
Friendly reminder: MIC below 8 µg/mL is condition met, at or above is condition not met.

Molecule	Study target	Discrete label
O=C(COC(=O)Cc1coc2ccc3ccccc3c12)Nc1nnc(-c2ccc(S(F)(F)(F)(F)F)cc2)o1 [Compound 13]	S. aureus	condition met
COc1ccc2c(ccc3occ(CC(=O)OCC(=O)Nc4nnc(-c5cccc(Cl)c5)o4)c32)c1 [Compound 11]	S. aureus	condition met
O=C(COC(=O)Cc1coc2ccc3ccccc3c12)Nc1nnc(-c2cccc(Cl)c2)o1 [Compound 10]	S. aureus	condition not met
O=C(COC(=O)Cc1coc2ccc3ccccc3c12)Nc1nnc(-c2ccccc2)s1 [Compound 14]	S. aureus	condition not met
COc1ccc2c(ccc3occ(CC(=O)OCC(=O)Nc4nnc(-c5ccccc5)o4)c32)c1 [Compound 9]	S. aureus	condition not met

----------
- System: S. epidermidis
- Assay name: MIC, broth microdilution (CLSI)
- Type: cell-based, Staphylococcus epidermidis
- Measurement conditions: Staphylococcus epidermidis, strain RP62A; read-out: minimum inhibitory concentration
Assay endpoint: MIC

Compound	Assay endpoint	Experimental result
COc1ccc2c(ccc3occ(CC(=O)OCC(=O)Nc4nnc(-c5cccc(Cl)c5)o4)c32)c1 [Compound 11]	MIC	2 to 4 mg/L
O=C(COC(=O)Cc1coc2ccc3ccccc3c12)Nc1nnc(-c2ccccc2)o1 [Compound 1771, reference compound]	MIC	8 to 16 mg/L
O=C(COC(=O)Cc1coc2ccc3ccccc3c12)Nc1nnc(-c2ccc(F)cc2)o1 [Compound 12]	MIC	4 to 8 mg/L

----------
As shown below, each of these molecules has a reported MIC value.
- Tested on: S. epidermidis
- Assay name: MIC, broth microdilution (CLSI)
- Type: cell-based, Staphylococcus epidermidis
- Measurement conditions: Staphylococcus epidermidis, strain 771; read-out: minimum inhibitory concentration

Molecule	Study target	MIC
O=C(COC(=O)Cc1coc2ccc3ccccc3c12)Nc1nnc(-c2ccccc2)o1 [Compound 1771, reference compound]	S. epidermidis	8 to 16 µg/mL
O=C(COC(=O)Cc1coc2ccc3ccccc3c12)Nc1nnc(-c2ccc(F)cc2)o1	S. epidermidis	4 to 8 µg/mL
O=C(COC(=O)Cc1coc2ccc3ccccc3c12)Nc1nnc(-c2cccc(Cl)c2)o1	S. epidermidis	32 to 64 µg/mL
O=C(COC(=O)Cc1coc2ccc3ccccc3c12)Nc1nnc(-c2ccccc2)s1	S. epidermidis	> 64 µg/mL
